# credit: patent US20240116985A1

assayTarget: full-length beta-Catenin (Uniprot ID P35222) (Homo sapiens, UniProt P35222)
Construct: 10 nM full-length beta-Catenin (Uniprot ID P35222)
Sequence (P35222 whole entry): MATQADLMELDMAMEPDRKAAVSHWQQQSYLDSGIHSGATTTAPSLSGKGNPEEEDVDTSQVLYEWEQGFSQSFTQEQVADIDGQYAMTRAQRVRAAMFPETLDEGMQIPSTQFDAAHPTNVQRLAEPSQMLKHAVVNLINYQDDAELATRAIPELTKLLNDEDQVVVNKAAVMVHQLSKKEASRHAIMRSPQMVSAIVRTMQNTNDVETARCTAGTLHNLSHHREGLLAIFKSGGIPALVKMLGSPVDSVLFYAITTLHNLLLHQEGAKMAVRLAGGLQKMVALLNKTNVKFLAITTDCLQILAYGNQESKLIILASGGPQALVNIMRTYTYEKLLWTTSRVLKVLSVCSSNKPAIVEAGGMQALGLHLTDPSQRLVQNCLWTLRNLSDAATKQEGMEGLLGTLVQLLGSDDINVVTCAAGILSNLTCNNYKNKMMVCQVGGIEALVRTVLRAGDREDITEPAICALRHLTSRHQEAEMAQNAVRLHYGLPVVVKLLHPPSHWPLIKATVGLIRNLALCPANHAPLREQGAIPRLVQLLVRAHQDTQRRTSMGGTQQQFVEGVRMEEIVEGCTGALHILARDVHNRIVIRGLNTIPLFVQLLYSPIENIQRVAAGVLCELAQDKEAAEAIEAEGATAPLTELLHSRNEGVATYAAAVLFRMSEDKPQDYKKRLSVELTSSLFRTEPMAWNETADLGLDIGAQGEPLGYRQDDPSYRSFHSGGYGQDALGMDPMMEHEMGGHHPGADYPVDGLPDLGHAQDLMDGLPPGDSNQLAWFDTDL
experimentSummary: Fluorescence polarization IC50 (beta-catenin / 5FAM-TCF4 10-53 competition)
Format: binding
testParameters: fluorescence polarization; read-out: beta-Catenin FP IC50
measurementName: IC50

{"columns": ["compound", "IC50"],
 "data": [
  ["CC(=O)N1CCC[C@]12CC=CCCCC1(CCCC=CCCCOC(=O)N3CC[C@@](C(=O)N[C@@H](Cc4ccccc4)C(=O)N[C@@H](Cc4csc5ccccc45)C(=O)N[C@@H](CCC(N)=O)C(N)=O)(C3)NC(=O)[C@H](CC(N)=O)NC(=O)[C@H](Cc3ccccc3)NC(=O)[C@H](C)NC(=O)[C@H](C)NC(=O)[C@H](CCC(=O)O)NC(=O)[C@H](CC(=O)O)NC1=O)NC(=O)[C@H](CC(C)(C)C)NC(=O)[C@H](CC(=O)O)NC2=O (some centres unmarked) [I-684]", "15 nM"],
  ["CC(=O)N1CCC[C@]12CC=CCCCC1(CCCC=CCCCOC(=O)N3CC[C@@](C(=O)N[C@@H](Cc4ccsc4)C(=O)N[C@@H](Cc4csc5ccccc45)C(=O)N[C@@H](CCC(N)=O)C(N)=O)(C3)NC(=O)[C@H](CC(N)=O)NC(=O)[C@H](Cc3ccccc3)NC(=O)[C@H](C)NC(=O)[C@H](C)NC(=O)[C@H](CN(C)CC(=O)O)NC(=O)[C@H](CC(=O)O)NC1=O)NC(=O)[C@H](CC(C)(C)C)NC(=O)[C@H](CC(=O)O)NC2=O (some centres unmarked) [I-1636]", "17 nM"],
  ["CC(=O)N1CCC[C@]12CC=CCCCC1(CCCC=CCCCOC(=O)N3CC[C@@](C(=O)N[C@@H](Cc4ccsc4)C(=O)N[C@@H](Cc4csc5ccccc45)C(=O)N[C@@H](C)C(N)=O)(C3)NC(=O)[C@H](CC(C)C)NC(=O)[C@H](Cc3ccccc3)NC(=O)[C@H](C)NC(=O)[C@H](CC(N)=O)NC(=O)[C@H](Cc3cccc(C(=O)O)c3)NC(=O)[C@H](CC(=O)O)NC1=O)NC(=O)[C@H](CC(C)(C)C)NC(=O)[C@H](CC(=O)O)NC2=O (some centres unmarked)", "5 nM"]
]}

response.value for CC(=O)N1CCC[C@]12CC=CCCCC1(CCCC=CCCCOC(=O)N3CC[C@@](C(=O)N[C@@H](Cc4cccc(Cl)c4)C(=O)N[C@@H](Cc4csc5ccccc45)C(=O)N[C@@H](CCC(N)=O)C(N)=O)(C3)NC(=O)[C@H](CC(N)=O)NC(=O)[C@H](Cc3ccccc3)NC(=O)[C@H](C)NC(=O)[C@H](C)NC(=O)[C@H]([C@@H](C)O)NC(=O)[C@H](CC(N)=O)NC1=O)NC(=O)[C@H](CC(C)(C)C)NC(=O)[C@H](CC(=O)O)NC2=O (some centres unmarked) [I-2000] (field: IC50) = 6560 nM

response.value for CC[C@H](C)[C@@H]1NC(=O)[C@H](CC(=O)O)NC(=O)[C@]2(CC=CCCCC3(CCCC=CCCCCCC[C@@](C)(C(=O)N[C@@H](Cc4ccccc4)C(=O)N[C@@H](Cc4csc5ccccc45)C(=O)N[C@@H](Cc4c[nH]cn4)C(N)=O)NC(=O)[C@H](CCC(N)=O)NC(=O)[C@H](Cc4cccs4)NC(=O)[C@H](C)NC(=O)[C@H](C)NC(=O)[C@H](CCC(=O)O)NC(=O)[C@H](CC(=O)O)NC3=O)NC1=O)CCCN2C(C)=O (some centres unmarked) (field: IC50) = 43 nM
